test system: BT-549 breast; experiment: NCI-60 one-dose screen, 48 h (100 = growth as untreated, 0 = no growth, -100 = all killed); conditions: 10 µM unless noted
This is part of a sample that, as a whole, favours compounds with a hit. Of some 83,000 tested, about 20% had one in any assay.
Is growth at least 50%? Then Fulfilled. If not, Not fulfilled.

The examples below pair each entry with its known result.
O=c1c2ccccc2n(C[C@H]2CO2)c2ccccc12 : Not fulfilled
COc1cc(Cc2cc(-c3ccccc3)nn(Cc3ccccc3)c2=O)cc(OC)c1OC : Fulfilled
COC12C=C/C(=C(/C(=O)OCc3csc(SC)n3)C(=O)CCCCCCCCC3(OC)C=C/C(=C(/C(=O)OCc4cnc(SC)s4)C(=O)CCCCCCCC1)O3)O2 (stereo not given) : Not fulfilled
COc1cc2c(cc1-c1c(C)noc1C)ncc1nc(CN3CCOCC3)n([C@H](C)COC(F)F)c12 : Fulfilled

# evaluate next
In: Exam item: decide whether the reported growth for "O=C(Nc1cc(Cl)cc(Cl)c1)Oc1c(Cl)c(Cl)c(Cl)c(Cl)c1Cl" is at least 50%.
Out: Fulfilled

* * *

test system: SK-MEL-5 melanoma; assay: NCI-60 one-dose screen, 48 h (100 = growth as untreated, 0 = no growth, -100 = all killed); settings: 10 µM unless noted
The panel holds about 83,000 compounds, 20% with a hit somewhere; the sample as a whole holds those more often.
readout: growth (%)
Numbers only here, please. The scale is %.

Some entries whose results are on file:
O=C(Nc1nc(Cl)nc(Nc2ccc(N3CCOCC3=O)cc2)n1)c1ccc(Cl)s1 : 91.3
COc1cc(Cc2cc(-c3ccccc3)nn(Cc3ccccc3)c2=O)cc(OC)c1OC : 40.2
Cc1cc(O)cc(-c2nn(C)cc2-c2cc(N3CCOCC3)nc(-c3cccnc3)n2)c1 : 1.65
CCOC(=O)CNC1=C(Cl)C(=O)N(Cc2ccc(Cl)cc2)C1=O : 102
COc1cc(-c2nccc3[nH]c(-c4cccc5[nH]ccc45)nc23)cc(OC)c1OC : -45.8

In: Recorded growth of "COc1cc(/C=C/c2cn[nH]c2-c2ccc(C)cc2)cc(OC)c1OC" , please.
Out: 12

In: What do we get for "COC(=O)c1ccc2c(c1)c1c(C)c3cnccc3c(C)c1n2C" ?
Out: -91.3

In: What do we get for CCN(CC)CCCC(Cc1ccccc1)Nc1c2ccc(Cl)cc2nc2ccc(OC)cc12 (configuration not stated) ?
Out: -93.6

In: What do we get for "CCN(CC)CCOc1ccc(/C(=C(\C)Cc2ccc(OC)cc2)c2ccc(OC(=O)NCc3ccccc3)cc2)cc1" ?
Out: 26.5

In: What do we get for "Cc1nc2sc(C(=O)Nc3cccc4ccccc34)c(N)c2cc1C(=O)c1ccccc1" ?
Out: 25

In: What do we get for "C=C(C)[C@@H]1CC[C@]2(C(=O)N3CCN(C)CC3)CC[C@]3(C)[C@H](CC[C@@H]4[C@@](C)(CCC(=O)O)[C@H](C(=C)C)CC[C@]43C)[C@@H]12" ?
Out: 82.7

In: What do we get for "O=S(=O)(Nc1ccc2ccccc2c1)c1ccc(-c2cnc(C3CC3)o2)cc1" ?
Out: 28.2

* * *

In this section, each of the compounds is paired with its reported growth.
tested on: HCT-15 colon; assay: NCI-60 one-dose screen, 48 h (100 = growth as untreated, 0 = no growth, -100 = all killed); conditions: 10 µM unless noted
Compounds without any hit were thinned out: in the full panel of roughly 83,000, 20% have a hit.
Numbers only here, please. The scale is %.

Some entries whose results are on file:
CC1(C)CC[C@]23CC[C@]4(C)[C@H](CC[C@@H]5[C@@]6(C)CCNCC(C)(C)[C@@H]6CC[C@]54C)[C@H]2[C@H]1OC3 : 54.2
N#Cc1ccc(O)c(C2=NCC(c3ccc(-c4ccccc4)cc3)O2)c1 (configuration not stated) : 24.6
O=Nc1ccc(NC(=O)Nc2ccc([N+](=O)[O-])cc2)cc1 : 83.2

In: Recorded growth of "Fc1cccc(CNc2c3ccccc3nc3ccccc23)c1" , please.
Out: 22.9

In: What do we get for "N#Cc1c(-c2cccc(Cl)c2)cc(-c2cccnc2)[nH]c1=O" ?
Out: 44.8

In: What do we get for "COc1cc(Cc2cc(-c3ccccc3)nn(Cc3ccccc3)c2=O)cc(OC)c1OC" ?
Out: 29.1

In: What do we get for "Cc1ccc2c(c1)=C/C(=C\c1cc(-c3ccccc3)[nH]c1O)C(=O)N=2" ?
Out: 26.7

In: What do we get for "Cc1ccc2nc(-c3ccc(C(=O)N/N=C/c4ccc([N+](=O)[O-])cc4)cc3)[nH]c2c1" ?
Out: 102

In: What do we get for "Nc1ccc(Br)cc1C(F)(F)F" ?
Out: 106

In: What do we get for "CCCCCCCCCCCCCCCCCCOc1ccccc1CC(=O)NCC[N+](C)(C)C" ?
Out: 87.4

* * *

system: UO-31 renal; assay: NCI-60 one-dose screen, 48 h (100 = growth as untreated, 0 = no growth, -100 = all killed); details: 10 µM unless noted
Compounds without any hit were thinned out: in the full panel of roughly 83,000, 20% have a hit.
Is growth at least 40%? Then rule met. If not, rule not met.

The examples below pair each entry with its known result.
Cc1ccc(C(=O)c2ccc(CC(=O)N/N=C/c3cccc(O)c3O)n2C)cc1 : rule not met
COc1ccc2c(c1)C(C)Cc1c(ncnc1-n1cnc3cc(C)ccc31)N2C (stereo not given) : rule met

In: Exam item: decide whether the reported growth for CCCCC#Cc1c(I)n(C2OC(CO[Si](C)(C)C(C)(C)C)C3OC(C)(C)OC32)c(=O)n(C(=O)c2ccccc2)c1=O (stereo not given) is at least 40%.
Out: rule not met

In: What do we get for "O=C(N/N=C/c1ccc(Cl)cc1)c1ccc(NC(=O)c2ccccn2)cc1" ?
Out: rule not met

In: What do we get for "N=C(N)c1ccc(-c2ccc(-c3ccccc3)o2)o1" ?
Out: rule met

In: What do we get for "CCN(CC)CCOc1ccc2c(-c3ccccc3)c(-c3ccc(OC)cc3)c(=O)oc2c1" ?
Out: rule met

In: What do we get for CCn1cc(C(=O)O)c(=O)c2cc(F)c(N3CCN(CC(=O)Nc4ccccc4)C(C)C3)c(F)c21 (stereo not given) ?
Out: rule met

In: What do we get for "O=C(CSc1nnnn1-c1ccccc1)Nc1ccc(Oc2ccccc2)cc1" ?
Out: rule met

In: What do we get for "C(=C(\C1=NCCN1)n1ccc2ccccc21)/c1ccccc1" ?
Out: rule met

In: What do we get for "COc1ccc(-c2nc3c(c(-c4ccc(Cl)cc4)nn3-c3ccccc3)c(-c3ccccc3)c2C#N)cc1" ?
Out: rule met

In: What do we get for "Cc1cc(O)cc(-c2nn(C)cc2-c2cc(N3CCOCC3)nc(-c3cccnc3)n2)c1" ?
Out: rule not met

In: What do we get for "Cc1cccc(NC(=O)Cn2cc(CN3CCN(c4ccnc5cc(Cl)ccc45)CC3)nn2)c1" ?
Out: rule met

In: What do we get for "CCCCCCCCCCOC(=O)c1nn(C(C)=O)c2cc(C)c(C)cc12" ?
Out: rule met

In: What do we get for "CCCCNC(=O)c1ccc2c(c1)nc(-c1ccccc1)n2C1CCCCC1" ?
Out: rule met

In: What do we get for "c1ccc(Cn2cc3c(c2-c2ccccc2)CCc2cnoc2-3)cc1" ?
Out: rule met

* * *

test system: MDA-MB-435 melanoma; experiment: NCI-60 one-dose screen, 48 h (100 = growth as untreated, 0 = no growth, -100 = all killed); details: 10 µM unless noted
About 83,000 compounds went through this panel and 20% of them were active in at least one assay; those are over-represented in the sample as a whole.
readout: growth (%)
Numbers only here, please. The scale is %.

Some entries whose results are on file:
N[C@@H]1CCC[C@H]1NCCCCN1C(=O)c2cccc3cc([N+](=O)[O-])cc(c23)C1=O : 43.4
CC1(/C=C/c2ccc(-c3ccccc3)cc2)CCn2cnc3ncnc(c32)N1O (stereo unspecified) : 28.4

In: Recorded growth of COc1ccc(C2CC(n3ccnc3)c3cc(OC)c(OC)c(OC)c32)cc1O (stereo unspecified) , please.
Out: 5

* * *

system: U251 CNS; experiment: NCI-60 one-dose screen, 48 h (100 = growth as untreated, 0 = no growth, -100 = all killed); conditions: 10 µM unless noted
The panel holds about 83,000 compounds, 20% with a hit somewhere; the sample as a whole holds those more often.
In this section, each of the molecules is paired with its reported growth.
Numbers only here, please. The scale is %.

Some entries whose results are on file:
CN(C)/C(N)=N/N=C(\c1ccccc1)c1ccccn1 : 96.7
CCOC(=O)NC(=S)n1oc(=O)c2ccccc21 : 98.6
Cc1ccc(O)c(NC(=O)c2cccc(Nc3ccnc(C(F)(F)F)c3)c2)c1 : 83.6
N#Cc1ccc(O)c(C2=NCC(c3ccc(-c4ccccc4)cc3)O2)c1 (stereo not given) : 4.51

Attention now shifts to the item below.
In: Recorded growth of "O=C1NC(=O)C(c2coc3cc(Br)ccc23)=C1c1c[nH]c2ccccc12" , please.
Out: 29.6
